Would you kindly list %Inh for each of these molecules?
System: HIPK1
CONDITION_INFO: concentration: 1 μM,replicates: in singlicate; n = 1;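 note: KINOMEscan kinase panel screen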
Record the value in %, omitting the unit from your answer.

Give its %Inh value. Item: O=C(NCC1CC1)c1ccc(-c2cc(C(=O)NC3CC3)ccc2F)cc1 0

Give its %Inh value. Item: CCOC(=O)N1CCC(n2cnc(-c3ccc(F)cc3)c2-c2ccnc(N)n2)CC1 37

Give its %Inh value. Item: CN1CCN(CCNc2nc3cc(Oc4ccc(NC(=O)Nc5cc(C(F)(F)F)ccc5F)cc4)ccc3[nH]2)CC1.Cl.Cl 19

Give its %Inh value. Item: O=C(NOCC1CC1)c1cc(Br)c(F)c(F)c1Nc1ccc(I)cc1Cl 20

Give its %Inh value. Item: CS(=O)(=O)Nc1ccc(-c2ccnc3[nH]ccc23)cc1 56

Give its %Inh value. Item: O=C(Nc1ccccc1)c1cccc(Oc2ccc3nccn3n2)c1 0

Give its %Inh value. Item: COc1cc2ncn(-c3cc(OCC4CCCCC4)c(C(N)=O)s3)c2cc1OC 9

Give its %Inh value. Item: CSc1nccc(-c2c(-c3ccc(F)cc3)ncn2CCCN2CCOCC2)n1.Cl 40

Give its %Inh value. Item: NC(=O)c1ccc(-c2cc3ncnc(SCC(=O)O)c3s2)cc1 94.8

Give its %Inh value. Item: Cc1ccc2c(-c3ccnc(Nc4ccc(C(F)(F)F)cc4)n3)cnn2n1 89

Give its %Inh value. Item: CC(C)c1nc(-c2cccc(NS(=O)(=O)c3ccccc3)c2)c(-c2ccnc(Nc3ccc4c(c3)CN(C)CC4)n2)s1 75

Give its %Inh value. Item: CCNCC(Cc1ccccc1)NC(=O)c1cc(Br)c(-c2ccnc3[nH]ccc23)s1.Cl.Cl (centres unmarked) 46

Give its %Inh value. Item: Cn1ccc2ncnc(Oc3ccc(NC(=O)Nc4ccnc(C(F)(F)F)c4)c(Cl)c3)c21 35

Give its %Inh value. Item: Nc1nccc(-c2ccc3c(N)n[nH]c3c2)n1 0

Give its %Inh value. Item: C[C@@H]1CCN(C(=O)N2CCCC2)C[C@@H]1N(C)c1ncnc2[nH]ccc12 25

Give its %Inh value. Item: Cn1ccc2ncnc(Oc3ccc(NC(=O)Nc4cccc(C(F)(F)F)c4)c(F)c3)c21 44

Give its %Inh value. Item: COc1cccc(C2=C(Nc3cccc(Cl)c3)C(=O)NC2=O)c1 19

====

Would you kindly list %Inh for each of these molecules?
Test system: TIE1
CONDITION_INFO: concentration: 1 μM,replicates: in singlicate; n = 1
Record the value in %, omitting the unit from your answer.

What reported %Inh corresponds to CN(c1ccccc1CNc1nc(Nc2ccc3c(c2)CC(=O)N3)ncc1C(F)(F)F)S(C)(=O)=O on TIE1? 90.6

What reported %Inh corresponds to COC(=O)Nc1nc2cc(Oc3ccc(NC(=O)Nc4cc(C(F)(F)F)ccc4Cl)cc3)ccc2[nH]1.Cl on TIE1? 91.5

What reported %Inh corresponds to CCn1c(-c2nonc2N)nc2cncc(CNC3CCNCC3)c21.Cl on TIE1? 5

What reported %Inh corresponds to Cc1ccc(Nc2ccnc(Nc3ccc4c(c3)CS(=O)(=O)C4)n2)cc1O.Cl on TIE1? 88

What reported %Inh corresponds to Cn1ccc2ncnc(Oc3ccc(NC(=O)Nc4cc(C(C)(C)C)on4)c(Cl)c3)c21 on TIE1? 88

====

Test system: NEK6
CONDITION_INFO: concentration: 1 μM,replicates: in singlicate; n = 1
Would you kindly list %Inh for each of these molecules?
Record the value in %, omitting the unit from your answer.

Give its %Inh value. Item: Cc1n[nH]c2cc(Nc3ccnc(Nc4cccc(CN5CCOCC5)c4)n3)ccc12 [GW682569] 0

Give its %Inh value. Item: Cc1ccc2c(-c3ccnc(Nc4ccc(C(F)(F)F)cc4)n3)cnn2n1 [GW819776] 0

Give its %Inh value. Item: O=C(Nc1n[nH]c2cc(-c3ccco3)ccc12)C1CC1 [SB-737447] 0

Give its %Inh value. Item: COC(=O)c1cccc(NC(=O)NC2CCN(c3ccnc(NCc4ccc(F)cc4)n3)CC2)c1 [GSK1379860] 0

Give its %Inh value. Item: N#Cc1cccc(C(=O)NC2CCN(c3ccnc(Nc4ccc(F)cc4)n3)C2)c1 (stereo not drawn) [GSK1379708] 12

Give its %Inh value. Item: CNC(=O)c1ccccc1Nc1nc(Nc2cccc(CS(C)(=O)=O)c2)ncc1C.O=CO [GSK1520489] 83

====

Would you kindly list %Inh for each of these compounds?
Tested on: HIPK1
CONDITION_INFO: concentration: 1 μM,replicates: in singlicate; n = 1
Record the value in %, omitting the unit from your answer.

Give its %Inh value. Item: C[C@@H]1CNc2c(sc3ccc4nc(-c5ccncc5)ccc4c23)C(=O)N1 37

Give its %Inh value. Item: Cc1ccc(Nc2ccnc(Nc3ccc4c(c3)CS(=O)(=O)C4)n2)cc1O.Cl 26

Give its %Inh value. Item: CC(=O)c1c(-c2ccncc2)[nH]c(-c2ccncc2)c1C 53

Give its %Inh value. Item: O=C(Nc1cccc(Oc2ccc3nccn3n2)c1)Nc1cccc(C(F)(F)F)c1 7

Give its %Inh value. Item: Cl.c1ccc(Oc2ccc(Nc3ccnc4cc(-c5ccc(CN6CCNCC6)o5)ccc34)cc2)nc1 0

Give its %Inh value. Item: CCN1CCN(CCCC(=O)Nc2n[nH]c3nc(-c4ccc(O)cc4)c(Br)cc23)CC1 75

====

Test system: CSNK1A1L
CONDITION_INFO: concentration: 1 μM,replicates: in singlicate; n = 1
MEASUREMENT_KIND: %Inh (%)
Record the value in %, omitting the unit from your answer.

Give its %Inh value. Item: COc1cccc(OC)c1C(=O)Nc1cccc(-c2nn3ccccc3c2-c2ccnc(Nc3cccc(F)c3)n2)c1 0

Give its %Inh value. Item: COc1cc2ncn(-c3cc(OCC4CCCCC4)c(C(N)=O)s3)c2cc1OC 22

Give its %Inh value. Item: CC(=O)Nc1nc2cnc(Nc3cc(NC(=O)c4cccc(CC(C)(C)C#N)c4)ccc3C)nc2s1 11

====

Would you kindly list %Inh for each of these compounds?
Tested on: ARK5
Construct: gene NUAK1
CONDITION_INFO: concentration: 1 μM,replicates: in singlicate; n = 1
Record the value in %, omitting the unit from your answer.

Give its %Inh value. Item: CSc1nccc(-c2c(-c3ccc(F)cc3)ncn2CCCN2CCOCC2)n1.Cl [SB-217146] 0

Give its %Inh value. Item: C[C@@H](Oc1cc(-n2cnc3cc(-c4cnn(C)c4)ccc32)sc1C(N)=O)c1ccccc1Cl [GSK580432] 98.7

Give its %Inh value. Item: O=C1NCCc2[nH]c(-c3ccncc3)cc21 0

Give its %Inh value. Item: Cn1ccc2ncnc(Oc3ccc(NC(=O)Nc4cncc(C(F)(F)F)c4)c(Cl)c3)c21 0

====

System: INSRR
CONDITION_INFO: concentration: 1 μM,replicates: in singlicate; n = 1
MEASUREMENT_KIND: %Inh (%)
Record the value in %, omitting the unit from your answer.

Give its %Inh value. Item: CS(=O)(=O)Nc1ccc(-c2ccnc3[nH]ccc23)cc1 [GSK993273] 0

Give its %Inh value. Item: O=C1NCCc2[nH]c(-c3ccncc3)cc21 0

Give its %Inh value. Item: CN1CCN(CCNc2nc3cc(Oc4ccc(NC(=O)Nc5cc(C(F)(F)F)ccc5F)cc4)ccc3[nH]2)CC1.Cl.Cl [GW768504] 0

Give its %Inh value. Item: c1ccc(Oc2ccc(Nc3ccnc4ccc(-c5ccccn5)cc34)cc2)cc1 [GW407034] 0

Give its %Inh value. Item: CN(c1ccccc1CNc1nc(Nc2ccc3c(c2)CC(=O)N3)ncc1C(F)(F)F)S(C)(=O)=O 69

Give its %Inh value. Item: O=C(Nc1cccc(Oc2ccc3nccn3n2)c1)Nc1cccc(C(F)(F)F)c1 15

Give its %Inh value. Item: CCCC(=O)Nc1n[nH]c2ncccc12 [SB-601436] 0

Give its %Inh value. Item: Cc1n[nH]c2cc(Nc3ccnc(Nc4cccc(CN5CCOCC5)c4)n3)ccc12 [GW682569] 0

====

Tested on: PRKCE
CONDITION_INFO: concentration: 1 μM,replicates: in singlicate; n = 1
MEASUREMENT_KIND: %Inh (%)
Record the value in %, omitting the unit from your answer.

Give its %Inh value. Item: COc1ccc(Nc2nccc(N3CCC(NC(=O)c4cccc(C#N)c4)C3)n2)cc1 (stereo not drawn) 0

Give its %Inh value. Item: C[C@@H](Oc1cc(-n2cnc3cc(-c4cnn(C)c4)ccc32)sc1C(N)=O)c1ccccc1Cl 1

Give its %Inh value. Item: CN1CCN(CCNc2nc3cc(Oc4ccc(NC(=O)Nc5cc(C(F)(F)F)ccc5F)cc4)ccc3[nH]2)CC1.Cl.Cl 0

Give its %Inh value. Item: Nc1nccc(-c2ccc3c(N)n[nH]c3c2)n1 0

Give its %Inh value. Item: CCN1CCN(CCCC(=O)Nc2n[nH]c3nc(-c4ccc(O)cc4)c(Br)cc23)CC1 70

Give its %Inh value. Item: Cn1ccc2ncnc(Oc3ccc(NC(=O)Nc4ccnc(C(F)(F)F)c4)c(Cl)c3)c21 0

Give its %Inh value. Item: Cc1nnc(-c2ccc3occ(-c4ccc(S(C)=O)cc4)c3n2)o1 (stereo not drawn) 0

Give its %Inh value. Item: CSc1nccc(-c2c(-c3ccc(F)cc3)ncn2CCCN2CCOCC2)n1.Cl 38

Give its %Inh value. Item: CCn1c(-c2nonc2N)nc2cncc(Br)c21 92.8
